Target: MARK1 (human) (UniProt Q9P0L2)
Sequence (Q9P0L2 whole entry, looked up): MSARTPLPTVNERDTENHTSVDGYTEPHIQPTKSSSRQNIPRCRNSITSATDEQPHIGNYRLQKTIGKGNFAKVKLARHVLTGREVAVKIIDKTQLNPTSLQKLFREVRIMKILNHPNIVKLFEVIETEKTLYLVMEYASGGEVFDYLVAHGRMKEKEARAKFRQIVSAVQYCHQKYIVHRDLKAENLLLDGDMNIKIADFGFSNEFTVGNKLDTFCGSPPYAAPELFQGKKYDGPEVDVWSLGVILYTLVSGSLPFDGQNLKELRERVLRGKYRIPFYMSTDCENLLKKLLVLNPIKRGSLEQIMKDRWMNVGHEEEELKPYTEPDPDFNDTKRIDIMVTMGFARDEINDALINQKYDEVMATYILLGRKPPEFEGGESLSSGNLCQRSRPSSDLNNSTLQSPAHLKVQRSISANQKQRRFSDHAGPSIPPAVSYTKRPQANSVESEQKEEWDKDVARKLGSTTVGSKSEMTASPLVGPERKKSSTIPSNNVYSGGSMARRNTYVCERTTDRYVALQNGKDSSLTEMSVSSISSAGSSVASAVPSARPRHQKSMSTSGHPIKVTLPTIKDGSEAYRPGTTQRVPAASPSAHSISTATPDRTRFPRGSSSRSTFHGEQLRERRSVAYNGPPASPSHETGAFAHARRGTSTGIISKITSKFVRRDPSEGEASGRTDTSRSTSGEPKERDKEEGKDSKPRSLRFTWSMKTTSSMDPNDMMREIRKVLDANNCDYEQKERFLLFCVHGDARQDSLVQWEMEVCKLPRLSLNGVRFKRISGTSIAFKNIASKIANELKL
Test: radiometric filter-binding kinase assay, Kinase HotSpot
Conditions: compound 0.5 µM; ATP 10 µM
propertyMeasured: residual activity

O=C1C(Cl)=C(N2C(=O)CCC2=O)C(=O)c2ccccc21
99.3%
CS(=O)(=O)CCNCc1ccc(-c2ccc3ncnc(Nc4ccc(OCc5cccc(F)c5)c(Cl)c4)c3c2)o1
149%
CC(C)(C)c1cc(C=C(C#N)C#N)cc(Br)c1O
98.8%
CCCCc1c(-c2ccc(OC)cc2)[nH]c2nccnc12
92.9%
COc1ccc2c(c1)c(C1=C(c3c[nH]c4ccccc34)C(=O)NC1=O)cn2CCCN(C)C
93.2%
Cc1nc(-c2ccccc2)c(-c2ccncc2)o1
92.5%
COc1ccc2c(c1)/C(=C/c1cnc[nH]1)C(O)=N2
50.4%
CN(C)CCCn1cc(C2=C(c3c[nH]c4ccccc34)C(=O)NC2=O)c2ccccc21
84.1%

Exam item: Recall the recorded residual activity for Fc1ccc(-c2nc3n(c2-c2ccncc2)CCS3)cc1 with MARK1 (human) (UniProt Q9P0L2) and state it.
Marked response: 102%

Exam item: Write down the reported residual activity of Cc1cncc2cccc(S(=O)(=O)N3CCCN(C(=O)CN)C[C@H]3C)c12 , test system: MARK1 (human) (UniProt Q9P0L2).
Marked response: 89.7%

Exam item: Form entry - test system: MARK1 (human) (UniProt Q9P0L2); read-out: residual activity; compound: c1ccc2c(-c3ccncc3)c[nH]c2c1
Marked response: 94.5%

Exam item: Give recorded residual activity with MARK1 (human) (UniProt Q9P0L2) for the following compound: CN(C)S(=O)(=O)c1ccc2c(c1)/C(=C/c1cc3c([nH]1)CCCC3)C(=O)N2
Marked response: 54.6%

Exam item: Write down the reported residual activity of COc1cc2ncnc(Nc3ccc(OCc4ccccc4)cc3)c2cc1OC , test system: MARK1 (human) (UniProt Q9P0L2).
Marked response: 103%

Exam item: Record lookup: for MARK1 (human) (UniProt Q9P0L2), what residual activity belongs to O=C1c2ccccc2-c2nc3nnnn3nc21 ?
Marked response: 98.2%
